measured-on: TetR, regulator sequence SEQ ID NO: 13 (Escherichia coli, UniProt P04483)
Construct: expressed in transfected cells; host or cells: E. coli DH5alpha transformed with pJKR-H (high copy) or pJKR-L (low copy) plasmid
Sequence (P04483 whole entry): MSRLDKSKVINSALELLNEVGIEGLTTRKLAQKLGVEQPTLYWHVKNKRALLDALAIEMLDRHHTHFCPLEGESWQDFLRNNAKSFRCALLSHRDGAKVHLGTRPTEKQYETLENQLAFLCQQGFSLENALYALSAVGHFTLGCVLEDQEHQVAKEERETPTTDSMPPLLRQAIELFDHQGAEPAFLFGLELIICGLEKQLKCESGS
assay-comment: cell-based
Assay type: cell-based
condition-description: anhydrotetracycline; high copy; lumped half-maximal parameter from Hill fit
measurement-name: pEC50
Answers are plain numbers, as −log10 of the molar value.

Asked: Param item = Cc1c2c(c(O)c3c(O)cccc13)C(=O)[C@]1(O)C(=O)C(C(N)=O)=C(O)[C@@H](N(C)C)[C@@H]1C2 [Anhydrotetracycline, anhydrotetracycline] ; retrieve measured pEC50.
Given back: 7.09
